// provenance: patent US20230303681A1

tested_target: T1, human TMEM106B (human, UniProt Q9NUM4 2-274)
T1 construct: Full-length, on transiently transfected HEK293 cells, or natively expressed on HeLa, U251 and A549 cells; also called huTMEM106B; huTMEM
protocol_summary: FACS HeLa;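 note: flow cytometry of cells incubated with hybridoma supernatant or purified antibody at 10 µg/ml for 1 h on ice, propidium iodide–positive dead cells gated out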
I'd appreciate it if you could supply MFI values for the items below.
Give bare numbers.

Some solved cases for reference:
1. anti-TMEM106B antibody TM-16 (antibody, V domains shown) VH: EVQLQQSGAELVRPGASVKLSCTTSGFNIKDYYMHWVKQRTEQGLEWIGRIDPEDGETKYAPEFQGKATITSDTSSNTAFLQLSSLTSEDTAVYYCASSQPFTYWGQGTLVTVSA VL: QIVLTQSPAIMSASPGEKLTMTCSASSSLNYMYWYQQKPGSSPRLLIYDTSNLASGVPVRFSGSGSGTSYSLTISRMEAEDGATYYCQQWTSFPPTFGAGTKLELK    548
2. anti-TMEM106B antibody TM-8 (antibody, V domains shown, mouse IgG from hybridoma) VH: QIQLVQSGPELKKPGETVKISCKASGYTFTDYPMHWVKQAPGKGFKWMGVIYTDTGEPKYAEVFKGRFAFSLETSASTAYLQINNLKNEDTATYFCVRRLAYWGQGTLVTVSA VL: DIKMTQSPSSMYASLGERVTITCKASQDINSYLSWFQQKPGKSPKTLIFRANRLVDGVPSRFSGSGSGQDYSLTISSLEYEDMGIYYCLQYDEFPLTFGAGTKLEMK    568
3. anti-TMEM106B antibody TM-2 (antibody, V domains shown) VH: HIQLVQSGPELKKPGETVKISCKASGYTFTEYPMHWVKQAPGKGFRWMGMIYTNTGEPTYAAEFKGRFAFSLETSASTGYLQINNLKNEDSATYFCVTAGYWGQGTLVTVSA VL: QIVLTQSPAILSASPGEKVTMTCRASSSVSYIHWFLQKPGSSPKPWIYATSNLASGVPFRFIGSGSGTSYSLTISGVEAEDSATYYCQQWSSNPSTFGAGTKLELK    2530

Working through the 2 binders below one at a time, give MFI for each.
1. anti-TMEM106B antibody TM-6 (antibody, V domains shown, mouse IgG from hybridoma) VH: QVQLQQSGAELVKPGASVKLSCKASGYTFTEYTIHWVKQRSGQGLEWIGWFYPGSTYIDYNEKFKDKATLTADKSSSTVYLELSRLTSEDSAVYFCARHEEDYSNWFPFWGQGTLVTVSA VL: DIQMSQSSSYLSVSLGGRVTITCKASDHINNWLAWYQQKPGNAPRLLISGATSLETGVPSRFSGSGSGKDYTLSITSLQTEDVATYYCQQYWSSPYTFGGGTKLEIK
2. anti-TMEM106B antibody TM-17 (antibody, V domains shown) VH: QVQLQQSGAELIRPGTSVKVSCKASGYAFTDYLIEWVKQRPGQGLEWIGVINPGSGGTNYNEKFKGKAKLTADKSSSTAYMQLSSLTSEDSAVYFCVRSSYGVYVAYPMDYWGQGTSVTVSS VL: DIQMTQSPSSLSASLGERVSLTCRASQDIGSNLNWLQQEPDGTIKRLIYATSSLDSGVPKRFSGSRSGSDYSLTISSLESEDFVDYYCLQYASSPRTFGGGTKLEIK

# output
1. 520
2. 437
